# Test system: Plasmodium falciparum
# EXPERIMENT: Screen against P. falciparum Asexual Blood Stage (ABS), at 5uM
# Assay type: functional, Dd2
# SETTINGS: tested at 5 uM
About 2,100 (3.2%) of roughly 65,000 compounds showed an effect of 50% or more. The median lay at about -52%. The list comes from a sample in which strong results are over-represented; it also holds close analogues and randomly drawn compounds.
So basically: INHIBITION at -50% or higher? That is Satisfied. Lower than -50%? That is Not satisfied.

Previously resolved entries follow.
>>> discrete_label("O=C(O)c1ccccc1-n1cnc(CN2CCc3ccccc32)c1")
"Not satisfied"
>>> discrete_label("CN(Cc1ccco1)[C@@H]1CN(Cc2cnn(C)c2)[C@@H]2CCCO[C@H]12")
"Satisfied"
>>> discrete_label("COc1ccc(Cl)cc1NCc1cc(C)on1")
"Not satisfied"
>>> discrete_label("Cc1nc(CNCc2c(C)nn(C)c2N2CCOCC2)cs1")
"Satisfied"
>>> discrete_label("c1ccc(CN2CCn3c(Cn4cncn4)cnc3C2)nc1")
"Not satisfied"

Kindly determine if INHIBITION recorded for Cc1cc(C(=O)N2CCN(C)CC2)nn1CC(=O)NCc1cccs1 is above or exactly -50%. Not satisfied

Kindly determine if INHIBITION recorded for CN(C)C(CNCc1nc(-c2ccsc2)no1)c1cccs1 (centres undefined) is above or exactly -50%. Satisfied

Kindly determine if INHIBITION recorded for COc1cccc(C(=O)N2C[C@@H](c3ccccc3)[C@@H]3NCCCC[C@@H]32)c1 is above or exactly -50%. Satisfied

Kindly determine if INHIBITION recorded for COc1ccc(C(=O)N2C[C@@H](c3ccccc3)[C@@H]3NCCCC[C@@H]32)cc1 is above or exactly -50%. Not satisfied

Kindly determine if INHIBITION recorded for NC(=O)c1cccc(C2CCN(c3ncccn3)CC2)n1 is above or exactly -50%. Not satisfied

Kindly determine if INHIBITION recorded for Cc1nn(C)c(N2CCOCC2)c1CNCc1cscn1 is above or exactly -50%. Satisfied

Kindly determine if INHIBITION recorded for O=C(c1ccc(-n2cccn2)c(F)c1)N1CCCN2CCCC2C1 (centres undefined) is above or exactly -50%. Satisfied

Kindly determine if INHIBITION recorded for CCOc1ccc(OCC)c(NCc2cc(C)on2)c1 is above or exactly -50%. Not satisfied

Kindly determine if INHIBITION recorded for CC(C)N(C)C(=O)c1ccc(CNc2ccncc2Cl)cc1 is above or exactly -50%. Satisfied

These measurements were taken from ChEMBL document CHEMBL4513216.
